system: Pnc1 WT or mutant; experiment: Steady-state kinetic parameters of Pnc1 mutants, enzyme-coupled assay; format: biochemical, S. cerevisiae; details: substrate nicotinamide
recordedEndpoint: fold lower kcat compared to Pnc1 WT (fold)
Write the answer as a number in fold, unit excluded.

Given item D8N (protein, UniProt P53184 1-216, looked up, variant D8N) Nicotinamidase: MKTLIVVNMQNDFISPLGSLTVPKGEELINPISDLMQDADRDWHRIVVTRDWHPSRHISFAKNHKDKEPYSTYTYHSPRPGDDSTQEGILWPVHCVKNTWGSQLVDQIMDQVVTKHIKIVDKGFLTDREYYSAFHDIWNFHKTDMNKYLEKHHTDEVYIVGVALEYCVKATAISAAELGYKTTVLLDYTRPISDDPEVINKVKEELKAHNINVVDK , the value recorded as its fold lower kcat compared to Pnc1 WT is 1150
